Entry source: ChEMBL document CHEMBL5584334

# TEST SYSTEM: Caspase-1 (Homo sapiens) (UniProt P29466)
# Sequence (P29466 120-297 limits assumed): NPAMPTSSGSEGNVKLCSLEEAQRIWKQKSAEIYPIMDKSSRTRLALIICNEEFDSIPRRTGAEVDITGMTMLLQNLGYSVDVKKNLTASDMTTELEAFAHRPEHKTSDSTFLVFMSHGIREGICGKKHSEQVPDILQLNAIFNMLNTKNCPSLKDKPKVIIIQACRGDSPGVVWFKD
# Sequence (P29466 317-404 limits assumed): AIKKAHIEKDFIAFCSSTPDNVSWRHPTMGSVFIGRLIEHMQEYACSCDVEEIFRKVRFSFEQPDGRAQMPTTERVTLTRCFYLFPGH
# TEST METHOD NOTES: Inhibition of recombinant human caspase-1 expressed in Escherichia coli BL21 cells at 5 to 50 uM using […] as substrate incubated for 30 mins
# APPLIED CONDITIONS: dose 5-50 µM
Calls of active or inactive are those of the source. No cut-off for these calls is given here.
Respond with a class label; see active, inactive

Would you please look over these solved cases?
COMPOUND	ANSWER LABEL
S=C=NCCc1ccccc1	inactive
C[S+]([O-])CCCCN=C=S (stereo not given)	inactive
COc1ccc2c(c1)[C@]1(C=C[C@H](N=C=S)C[C@H]1C(=O)OC(C)(C)C)C(=O)N2C(=O)OCc1ccccc1	active
S=C=NCc1ccccc1	active

# next compound below
Which result was noted for this compound in the test: `COc1ccc2c(c1)[C@]1(C=C[C@@H](N=C=S)C[C@H]1C(=O)OC(C)(C)C)C(=O)N2C(=O)OCc1ccccc1`
active

====

# TEST SYSTEM: UniProtKB P29466
# TEST METHOD NOTES: Inhibition of recombinant human caspase-1 expressed in Escherichia coli BL21 cells using […] as substrate incubated for 30 mins
PROPERTY MEASURED: IC50

Example cases with answers are listed next.
CHEMICAL STRING	IC50
CC(C)(C)OC(=O)[C@@H]1C[C@@H](N=C=S)C=C[C@@]12C(=O)N(C(=O)OCc1ccccc1)c1ccc(I)cc12	> 100 µM
CCC1=C[C@@]2(C(=O)N(C(=O)OCc3ccccc3)c3ccccc32)[C@H](C(=O)OC(C)(C)C)C[C@@]1(CC)N=C=S	> 100 µM

Respectfully, I request IC50 for each entry included below.
1. CC1=C[C@@]2(C(=O)N(C(=O)OCc3ccccc3)c3ccccc32)[C@H](C(=O)OC(C)(C)C)C[C@@]1(C)N=C=S
2. CC(C)(C)OC(=O)[C@@H]1C[C@@H](NC(=S)NN)C=C[C@@]12C(=O)N(C(=O)OCc1ccccc1)c1ccccc12

["> 100 µM", "> 100 µM"]

Okay, here is my list. What is IC50 for each of these?
1. CC1=C[C@@]2(C(=O)N(C(=O)OCc3ccccc3)c3ccccc32)[C@H](C(=O)OC(C)(C)C)C[C@H]1N=C=S
2. CC(C)(C)OC(=O)[C@@H]1C[C@@H](NC(=S)Nc2ccccc2)C=C[C@@]12C(=O)N(C(=O)OCc1ccccc1)c1ccccc12

["> 100 µM", "> 100 µM"]
